Provide the reported SPOT intensity of each item.
Test target: Sho1, P40073
Sequence (P40073 287-367): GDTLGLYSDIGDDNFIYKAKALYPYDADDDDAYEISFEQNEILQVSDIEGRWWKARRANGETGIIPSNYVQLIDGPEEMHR
Assay protocol: SPOT array
Test parameters: median of control spots 1148
No unit in the answer, please; the number alone is enough.

Item under review: STKKPRPPVKSKPKH . Reported SPOT intensity?
12

Item under review: MTKTPETSPPKRPMG . Reported SPOT intensity?
5

Item under review: GPPPPLPPPLFPSSS . Reported SPOT intensity?
0

Item under review: RPVPPPPPMRTTTEG . Reported SPOT intensity?
2

Item under review: NTMKKRPAPPSLPSL . Reported SPOT intensity?
95

Item under review: QLLNPNRRAPRRPLS . Reported SPOT intensity?
50

Item under review: MKRSRPSRSIPYTTP . Reported SPOT intensity?
54
